# Species on record: Rattus norvegicus
# EXPERIMENTAL_DETAILS: Compound was tested for 50% inhibition of cholesterol synthesis in isolated rat hepatocytes.
# Assay type: functional
# CONDITION_LABEL: Hepatocyte, read-out: I50
Rule for this label: Satisfied means IC50 is less than 100 nM; Not satisfied means IC50 is at least 100 nM.

{"RECORD_SMILES": "CC(C)c1c(C#CP(=O)(O)C[C@@H](O)CC(=O)O)n(-c2ccc(F)cc2)c2ccccc12", "ASSIGNED_LABEL": "Satisfied"}
{"RECORD_SMILES": "Cc1cc(C)c(CCP(=O)(O)C[C@@H](O)CC(=O)O)c(-c2ccc(F)c(C)c2)c1", "ASSIGNED_LABEL": "Satisfied"}
{"RECORD_SMILES": "O=C(O)C[C@H](O)CP(=O)(O)C#CC1=C(c2ccc(F)cc2)c2ccccc2C12CCCC2", "ASSIGNED_LABEL": "Not satisfied"}
{"RECORD_SMILES": "Cc1cc(C)c(COP(=O)(O)C[C@@H](O)CC(=O)O)c(-c2ccc(F)c(C)c2)c1", "ASSIGNED_LABEL": "Not satisfied"}
{"RECORD_SMILES": "CC[C@H](C)C(=O)O[C@H]1C[C@@H](C)C=C2C=C[C@H](C)[C@H](CC[C@@H](O)C[C@@H](O)CC(=O)[O-])[C@H]21.[Na+]", "ASSIGNED_LABEL": "Not satisfied"}
